- target.or.system: c-Met phosphorylation (pY1349) in NCI-H460 cells (Homo sapiens, UniProt P08581)
- Construct: host or cells: NCI-H460
- Sequence (P08581 25-1390): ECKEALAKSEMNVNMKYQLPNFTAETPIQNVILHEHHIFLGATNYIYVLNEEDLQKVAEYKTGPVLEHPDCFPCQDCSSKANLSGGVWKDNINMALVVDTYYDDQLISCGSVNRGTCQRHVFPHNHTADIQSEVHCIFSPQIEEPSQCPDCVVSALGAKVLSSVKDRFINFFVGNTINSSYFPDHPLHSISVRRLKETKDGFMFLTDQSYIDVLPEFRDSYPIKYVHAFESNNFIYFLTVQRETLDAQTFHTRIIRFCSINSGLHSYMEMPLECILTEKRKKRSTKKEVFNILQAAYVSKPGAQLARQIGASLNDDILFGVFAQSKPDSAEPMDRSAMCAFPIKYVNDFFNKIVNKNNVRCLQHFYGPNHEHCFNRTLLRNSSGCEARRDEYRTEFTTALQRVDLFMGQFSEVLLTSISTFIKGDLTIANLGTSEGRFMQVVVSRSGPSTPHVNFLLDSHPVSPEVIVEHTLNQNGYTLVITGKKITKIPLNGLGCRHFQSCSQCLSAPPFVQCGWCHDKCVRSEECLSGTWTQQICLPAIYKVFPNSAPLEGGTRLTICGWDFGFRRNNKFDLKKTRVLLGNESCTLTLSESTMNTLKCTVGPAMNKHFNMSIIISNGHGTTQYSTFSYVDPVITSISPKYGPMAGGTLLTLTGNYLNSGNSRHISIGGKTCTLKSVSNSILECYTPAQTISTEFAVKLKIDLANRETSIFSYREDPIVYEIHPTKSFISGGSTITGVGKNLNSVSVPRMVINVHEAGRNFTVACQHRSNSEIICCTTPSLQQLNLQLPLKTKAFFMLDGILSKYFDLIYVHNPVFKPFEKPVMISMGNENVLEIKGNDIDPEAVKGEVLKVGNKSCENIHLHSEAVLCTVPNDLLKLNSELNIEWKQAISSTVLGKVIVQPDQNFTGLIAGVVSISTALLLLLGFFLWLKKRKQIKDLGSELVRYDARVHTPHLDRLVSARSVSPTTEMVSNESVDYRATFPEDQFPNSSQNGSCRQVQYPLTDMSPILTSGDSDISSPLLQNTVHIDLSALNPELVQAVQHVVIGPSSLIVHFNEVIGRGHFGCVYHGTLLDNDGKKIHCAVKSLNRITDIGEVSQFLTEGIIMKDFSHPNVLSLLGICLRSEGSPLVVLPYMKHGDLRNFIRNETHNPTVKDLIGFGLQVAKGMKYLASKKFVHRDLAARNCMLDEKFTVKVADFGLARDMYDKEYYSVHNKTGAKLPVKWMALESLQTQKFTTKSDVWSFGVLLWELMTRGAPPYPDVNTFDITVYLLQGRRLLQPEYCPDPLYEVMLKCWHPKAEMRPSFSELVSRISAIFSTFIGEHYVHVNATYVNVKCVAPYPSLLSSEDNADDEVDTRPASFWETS
- measurement.description: HGF Stimulated Met (pY1349) NCI-H460 Cell-based ELISA
- run.parameters: 0.2 μM compound; mean of replicates
measured.parameter: Mean of Activity (% Control)

In the examples that follow, each entry is paired with its recorded Mean of Activity (% Control).
| smiles.data | result.value |
| --- | --- |
| Cn1c(Nc2ccc(F)cc2)ncc(-c2ccc(Oc3ncnc4cc5c(cc34)OC(F)(F)O5)cn2)c1=O | 24 |
| O=C(Nc1ccc(Oc2ncnc3cc4c(cc23)OCO4)c(F)c1)c1c[nH]cc(-c2ccc(F)cc2)c1=O | 19 |
| CN1CCOc2cc3ncnc(Oc4ccc(-c5cnc(Nc6ccc(F)cc6)n(C)c5=O)nc4)c3cc2OCC1 | 27 |
| Cn1c(Nc2ccccc2)ncc(-c2ccc(Oc3ccnc4cc5c(cc34)OC(F)(F)O5)cn2)c1=O | 1 |

a. Cn1c(Nc2ccc(F)cc2)ncc(-c2ccc(Oc3ncnc4cc5c(cc34)OCCOCCOCCO5)cn2)c1=O
b. Cn1c(Nc2ccccc2)ncc(-c2ccc(Oc3ccnc4cc5c(cc34)OCCOCCOCCOCCOCCO5)cn2)c1=O
Would you mind telling me which has the lower recorded Mean of Activity (% Control) between a and b ? Please indicate the selected item by its label. a
(a: 25 % Control, b: 37 % Control)

----------
- target.or.system: c-Met phosphorylation (pY1349) in NCI-H460 cells (Homo sapiens)
- Construct: host or cells: NCI-H460
- measurement.description: HGF Stimulated Met (pY1349) NCI-H460 Cell-based ELISA
- run.parameters: 0.2 μM compound
measured.parameter: Mean (Counts − Blanks)

| smiles.data | Mean (Counts − Blanks) |
| --- | --- |
| Cn1c(Nc2ccc(F)cc2)ncc(-c2ccc(Oc3ncnc4cc5c(cc34)OC(F)(F)O5)cn2)c1=O | 28728 |
| Cn1c(Nc2ccc(F)cc2)ncc(-c2ccc(Oc3ncnc4cc5c(cc34)OCCCO5)cn2)c1=O | 32073 |
| O=C(Nc1ccc(Oc2ccnc3cc4c(cc23)OCCOCCOCCO4)c(F)c1)c1c[nH]cc(-c2ccc(F)cc2)c1=O | 28866 |

----------
- target.or.system: c-Met phosphorylation (pY1349) in NCI-H460 cells (Homo sapiens)
- Construct: host or cells: NCI-H460
- measurement.description: HGF Stimulated Met (pY1349) NCI-H460 Cell-based ELISA
- run.parameters: 0.2 μM compound; mean of replicates
measured.parameter: Mean of Activity (% Control)

In the examples that follow, each entry is paired with its recorded Mean of Activity (% Control).
| smiles.data | Mean of Activity (% Control) |
| --- | --- |
| Cn1c(Nc2ccc(F)cc2)ncc(-c2ccc(Oc3ncnc4cc5c(cc34)OCCCO5)cn2)c1=O | 39 |
| O=C(Nc1ccc(Oc2ccnc3cc4c(cc23)OCCOCCOCCO4)c(F)c1)c1c[nH]cc(-c2ccc(F)cc2)c1=O | 25 |

P. O=C(Nc1ccc(Oc2ncnc3cc4c(cc23)OCCOCCOCCO4)c(F)c1)c1c[nH]cc(-c2ccc(F)cc2)c1=O
Q. O=C(Nc1ccc(Oc2ccnc3cc4c(cc23)OCCOCCOCCO4)c(F)c1)c1cccn(-c2ccc(F)cc2)c1=O
# argmax over Mean of Activity (% Control) for candidates P and Q Please indicate the selected item by its label. Q
